- assayed-target: T1, CTLA4-Fc fusion protein (human, biotinylated where used as CTLA4-Fc-Biotin (Examples 5.1-5.3))
- T1 construct: expressed in HEK293 cells; also called human CTLA4-Fc protein; CTLA4-Fc antigen protein
- T1 sequence (chain, as listed by the source limits assumed): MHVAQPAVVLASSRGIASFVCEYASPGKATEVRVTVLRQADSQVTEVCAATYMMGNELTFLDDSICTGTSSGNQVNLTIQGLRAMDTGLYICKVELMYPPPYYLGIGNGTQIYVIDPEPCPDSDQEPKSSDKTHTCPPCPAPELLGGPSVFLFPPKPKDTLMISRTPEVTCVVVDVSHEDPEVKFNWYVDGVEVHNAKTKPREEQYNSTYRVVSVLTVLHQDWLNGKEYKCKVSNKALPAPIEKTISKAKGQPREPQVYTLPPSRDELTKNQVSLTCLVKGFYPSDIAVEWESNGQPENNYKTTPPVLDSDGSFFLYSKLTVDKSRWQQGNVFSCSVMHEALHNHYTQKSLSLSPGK
- test-protocol: ELISA, CTLA4-Fc coated, 10 ng VHH/well
property-label: OD (against CTLA4) (OD405)
Express your answer in OD405, writing the number without its unit.

binder	units-symbol	reported-value
CTLA4 heavy chain single domain antibody No. J29 (VHH, Camel VHH expressed in E. coli (PET32b), nickel-purified) VHH: QVQLQESGGGLVQPGGSLRLSCAASGFTISSYTMTWLHQAPGKGLEWVSTINSGGSTAYADSVKGRFAISRDNAKNTLYLQLNSLKIEDTGMYYCQGGLTQRGQGTQVTVSS	OD405	1.44
CTLA4 heavy chain single domain antibody No. 128 (VHH, Camel VHH expressed in E. coli (PET32b), nickel-purified) VHH: QVQLQESGGGSVQAGGSLKLSCAASGYTDYTYNTSCMGWFRQTPGKERERVATVNKVGSTIYADSVKGRFTISKDNVKNTLYLQMNSLKPEDTAMYYCAARGSWSCSQFWGDFGYWGQGTQVTVSS	OD405	1.27
CTLA4 heavy chain single domain antibody No. 119 (VHH, Camel VHH expressed in E. coli (PET32b), nickel-purified) VHH: QVQLQESGGGSVQAGGSLRLSCAASEYTYHTNCMGWFRQAPGKEREGLAVMNPSGGVTYFADSVKGRFTISRDNAKNTVYLQMNSLKPEDTAMYYCAAGRGRCSGYSGYYNEWGQGTQVTVSS	OD405	0.537
CTLA4 heavy chain single domain antibody No. C2 (VHH, Camel VHH expressed in E. coli (PET32b), nickel-purified) VHH: QVQLQESGGGSVQPGGSLRLSCAVSGFTFSGYCMAWVRQAPGKGLEWVASIHRRDGSTDYADSVKGRFTISKDNSKNTLYLQMSSLKPEDTAVYYCAADPARLSCSGRVNSEYKYRGQGTQVTVSS	OD405	1.23
CTLA4 heavy chain single domain antibody No. J35 (VHH, Camel VHH expressed in E. coli (PET32b), nickel-purified) VHH: QVQLQESGGGSVQAGGSLRLSCAASGYTSGYYVMGWYRQAPGKLREFVSSIDSNGGTMYADSVKGRFTISQDNAKNTAHLQMNSLKPEDTAMYYCKRDSPGNFYWGQGTQVTVSS	OD405	0.823
CTLA4 heavy chain single domain antibody No. J37 (VHH, Camel VHH expressed in E. coli (PET32b), nickel-purified) VHH: QVQLQESGGGSVQAGGTLRLSCAVSGVTYSPHCMGWFRQAPGKEREGVAAIYNGGGSTAYADSVKGRFTISQDNAKNTVYLQMNSLKPEDTAMYYCGAGSPRFCASATMTGGHHLFGYWGQGTQVTVSS	OD405	1.2

Need OD (against CTLA4) of CTLA4 heavy chain single domain antibody No. C16 (VHH, Camel VHH expressed in E. coli (PET32b), nickel-purified) VHH: QVQLQESGGGSVQAGGSLTLSCAASGYTGDLVAWFRQTPGKEREGVAAISRTGLTTYYADSVKGRFTISQDTAKNTGYLQMNSMKPEDTAMYYCVAGWHVGGTWYKTSSYDYWGQGTQVTVSS , thanks.
1.79

Suppose we examine the binder CTLA4 heavy chain single domain antibody No. 145 (VHH, Camel VHH expressed in E. coli (PET32b), nickel-purified) VHH: QVQLQESGGGSVQAGGSLRLSCAASGYTYSSYSMGWFRQAAGKEREGVAAIDSDGSTSYADSVKGRFTISQDNAKNTLYLQMNSLEPEDTAMYYCAATAGWYAARHALSPLFFGYWGQGTQVTVSS ; what OD (against CTLA4) value has been reported?
1.49
